Reported pEC50 by item:
test_target: Human CB1R (Cannabanoid receptor 1) (Homo sapiens (Human), UniProt P21554)
Sequence (P21554 whole entry): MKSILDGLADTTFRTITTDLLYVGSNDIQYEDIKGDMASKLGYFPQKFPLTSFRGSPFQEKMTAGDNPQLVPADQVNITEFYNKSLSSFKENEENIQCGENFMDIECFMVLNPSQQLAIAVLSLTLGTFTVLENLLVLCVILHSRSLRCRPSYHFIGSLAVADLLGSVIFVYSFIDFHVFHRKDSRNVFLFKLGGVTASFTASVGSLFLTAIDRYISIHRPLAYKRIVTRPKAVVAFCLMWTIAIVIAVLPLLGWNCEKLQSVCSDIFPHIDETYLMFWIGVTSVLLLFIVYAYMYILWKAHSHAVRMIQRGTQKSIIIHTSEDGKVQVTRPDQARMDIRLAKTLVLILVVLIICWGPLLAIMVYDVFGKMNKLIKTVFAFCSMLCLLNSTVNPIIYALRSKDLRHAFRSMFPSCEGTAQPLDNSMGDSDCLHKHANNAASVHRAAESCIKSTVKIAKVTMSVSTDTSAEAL
assay_method_text: CB-1 in vitro cAMP (HTRF) assay in HEK-293 cells
applied_conditions: HEK-293 cells stably transfected with human CB1R, 250 nM Forskolin, mean where tested more than once, read-out: CB-1 (HEK_cAMP) EC50
Text: CB1 and CB2 receptors are Gi-coupled GPCR. Activation of CB1 and CB2 receptors results in a decrease in cAMP production. An inverse agonist of the CB1 or CB2 receptor results in the opposite effect, an increase of cAMP production. The principle of this assay is based on HTRF® technology (Homogeneous Time-Resolved Fluorescence). […] The tracer binding is quantified by a Mab anti-cAMP labeled with Eu3+TBP-NHS Cryptate (supplied as part of the assay kit). […]
Units for pEC50: none; it is -log10 of a concentration expressed in mol/L.

GET /values?readout=pEC50&item= COc1ccc(S(=O)(=O)N2CCC(c3c4cc(C(c5ccc(Cl)cc5)c5ccc(Cl)cc5)ccc4nn3C3CC3)CC2)cc1
7.77

GET /values?readout=pEC50&item= O=S(=O)(N1CCC(c2nn(-c3cccc(C(F)(F)F)c3)c3ccc(C(c4ccc(Cl)cc4)c4ccc(Cl)cc4)cc23)CC1)C(F)(F)F
6.32

GET /values?readout=pEC50&item= NC(=O)c1csc(CN2CCC(c3c4cc(C(c5ccc(Cl)cc5)c5ccc(Cl)cc5)ccc4nn3C3CC3)CC2)c1
8.30

Switching to the query record.
GET /values?readout=pEC50&item= O=C(O)c1cccc(N2CCC(c3nn(C4CC4)c4ccc(C(c5ccc(Cl)cc5)c5ccc(Cl)cc5)cc34)CC2)c1
6.49

----------
Reported EC50 by item:
test_target: Human CB1R (Cannabanoid receptor 1) (Homo sapiens (Human))
assay_method_text: CB-1 in vitro cAMP (HTRF) assay in HEK-293 cells
applied_conditions: HEK-293 cells stably transfected with human CB1R, 250 nM Forskolin, mean where tested more than once, read-out: CB-1 (HEK_cAMP) EC50
Give the value, in units of nM, as a plain number.

Below, 5 compounds whose answers are already recorded.
GET /values?readout=EC50&item= O=S(=O)(N1CCC(c2nn(-c3ccc(C(F)(F)F)cc3)c3ccc(C(c4ccc(Cl)cc4)c4ccc(Cl)cc4)cc23)CC1)C(F)(F)F [Compound 46]
40

GET /values?readout=EC50&item= O=C(O)c1cccc(S(=O)(=O)N2CCC(c3n[nH]c4ccc(C(c5ccc(Cl)cc5)c5ccc(Cl)cc5)cc34)C2)c1 (centres unmarked) [Compound 273]
6800

GET /values?readout=EC50&item= O=S(=O)(c1ccccc1O)N1CCC(c2c3cc(C(c4ccc(Cl)cc4)c4ccc(Cl)cc4)ccc3nn2C2CC2)CC1 [Compound 149]
7

GET /values?readout=EC50&item= CCNC(=O)N1CCC(c2n[nH]c3ccc(C(c4ccc(Cl)cc4)c4ccc(Cl)cc4)cc23)CC1 [Compound 264]
199

GET /values?readout=EC50&item= NC(=O)c1ccc(S(=O)(=O)N2CCC(c3c4cc(C(c5ccc(Cl)cc5)c5ccc(Cl)cc5)ccc4nn3C3CC3)CC2)o1 [Compound 172]
3

More entries:
GET /values?readout=EC50&item= O=S(=O)(N1CCC(c2c3cc(C(c4ccc(Cl)cc4)c4ccc(Cl)cc4)ccc3nn2C2CC2)CC1)C(F)(F)F [Compound 136]
11

GET /values?readout=EC50&item= O=C(O)COCCn1nc(N2CCN(S(=O)(=O)C(F)(F)F)CC2)c2cc(C(c3ccc(Cl)cc3)c3ccc(Cl)cc3)ccc21 [Compound 52]
499

GET /values?readout=EC50&item= O=C(CCO)N1CCC(c2nn(C3CC3)c3ccc(C(c4ccc(Cl)cc4)c4ccc(Cl)cc4)cc23)CC1 [Compound 108]
37

GET /values?readout=EC50&item= O=C(O)c1cccc(CN2CCC(c3n[nH]c4ccc(C(c5ccc(Cl)cc5)c5ccc(Cl)cc5)cc34)C2)c1 (centres unmarked) [Compound 272]
333

GET /values?readout=EC50&item= COC(=O)c1cccc(S(=O)(=O)N2CCC(c3n[nH]c4ccc(C(c5ccc(Cl)cc5)c5ccc(Cl)cc5)cc34)CC2)c1 [Compound 60]
65

GET /values?readout=EC50&item= O=S(=O)(N1CCC(c2nn(-c3nccs3)c3ccc(C(c4ccc(Cl)cc4)c4ccc(Cl)cc4)cc23)CC1)C(F)(F)F [Compound 37]
8

GET /values?readout=EC50&item= O=C(O)c1cccc(CN2CCC(c3nn(C4CC4)c4ccc(C(c5ccc(F)cc5)c5ccc(F)cc5)cc34)CC2)c1 [Compound 243]
285

GET /values?readout=EC50&item= O=S(=O)(N1CCC(c2n[nH]c3ccc(C(c4ccc(Cl)cc4)c4ccc(Cl)cc4)cc23)CC1)C(F)(F)F [Compound 35]
5

GET /values?readout=EC50&item= NC(=O)COc1ccc(N2CCC(c3n[nH]c4ccc(C(c5ccc(Cl)cc5)c5ccc(Cl)cc5)cc34)CC2)cc1 [Compound 217]
1030

----------
test_target: Human CB2R (Cannabanoid receptor 2) (Homo sapiens (Human), UniProt P34972)
Sequence (P34972 whole entry): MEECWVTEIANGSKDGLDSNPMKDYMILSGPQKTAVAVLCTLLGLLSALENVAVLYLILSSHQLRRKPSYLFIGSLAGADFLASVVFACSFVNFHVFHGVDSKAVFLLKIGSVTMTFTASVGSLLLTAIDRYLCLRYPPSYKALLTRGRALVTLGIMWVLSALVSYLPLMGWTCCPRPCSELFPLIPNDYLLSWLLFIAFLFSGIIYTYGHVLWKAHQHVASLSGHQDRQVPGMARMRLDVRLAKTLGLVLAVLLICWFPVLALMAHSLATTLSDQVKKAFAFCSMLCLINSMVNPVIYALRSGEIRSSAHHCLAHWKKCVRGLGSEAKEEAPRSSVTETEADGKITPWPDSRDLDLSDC
assay_method_text: CB-2 in vitro cAMP (HTRF) assay in HEK-293 cells
applied_conditions: HEK-293 cells stably transfected with human CB2R, 250 nM Forskolin, mean where tested more than once, read-out: CB-2 (HEK_cAMP) EC50
pEC50: −log10 of the molar value.
measured_property: pEC50

Below, 2 compounds whose answers are already recorded.
GET /values?readout=pEC50&item= O=C(O)CCNC(=O)c1ccc(-n2nc(C3CCN(S(=O)(=O)C(F)(F)F)CC3)c3cc(C(c4ccc(Cl)cc4)c4ccc(Cl)cc4)ccc32)cc1 [Compound 230]
< 5.00

GET /values?readout=pEC50&item= COC(=O)c1ccccc1S(=O)(=O)N1CCC(c2n[nH]c3ccc(C(c4ccc(Cl)cc4)c4ccc(Cl)cc4)cc23)CC1 [Compound 31]
5.63

Switching to the query record.
GET /values?readout=pEC50&item= NC(=O)CCC(=O)N1CCC(c2nn(C3CC3)c3ccc(C(c4ccc(Cl)cc4)c4ccc(Cl)cc4)cc23)CC1 [Compound 92]
< 5.00

----------
test_target: Human CB1R (Cannabanoid receptor 1) (Homo sapiens (Human))
assay_method_text: CB-1 in vitro cAMP (HTRF) assay in HEK-293 cells
applied_conditions: HEK-293 cells stably transfected with human CB1R, 250 nM Forskolin, mean where tested more than once, read-out: CB-1 (HEK_cAMP) EC50
measured_property: pEC50
Units for pEC50: none; it is -log10 of a concentration expressed in mol/L.

Below, 2 molecules whose answers are already recorded.
Lab note: need pEC50 for O=C(O)c1ccc(S(=O)(=O)N2CCC(Nc3n[nH]c4ccc(C(c5ccc(Cl)cc5)c5ccc(Cl)cc5)cc34)CC2)cc1 [Compound 129] on Human CB1R (Cannabanoid receptor 1) (Homo sapiens (Human)), anyone have it?
6.69

Lab note: need pEC50 for O=S(=O)(N1CCN(c2nn(CCO)c3ccc(C(c4ccc(Cl)cc4)c4ccc(Cl)cc4)cc23)CC1)C(F)(F)F [Compound 42] on Human CB1R (Cannabanoid receptor 1) (Homo sapiens (Human)), anyone have it?
8.22

More entries:
Lab note: need pEC50 for NC(=O)c1cccc(S(=O)(=O)N2CCC(c3n[nH]c4ccc(C(c5ccc(Cl)cc5)c5ccc(Cl)cc5)cc34)CC2)c1 [Compound 66] on Human CB1R (Cannabanoid receptor 1) (Homo sapiens (Human)), anyone have it?
6.80

----------
test_target: Human CB2R (Cannabanoid receptor 2) (Homo sapiens (Human))
assay_method_text: CB-2 in vitro cAMP (HTRF) assay in HEK-293 cells
applied_conditions: HEK-293 cells stably transfected with human CB2R, 250 nM Forskolin, mean where tested more than once, read-out: CB-2 (HEK_cAMP) EC50
pEC50: −log10 of the molar value.
Reported pEC50 by item:

GET /values?readout=pEC50&item= NS(=O)(=O)c1ccc(C(=O)N2CCC(c3nn(CCO)c4ccc(C(c5ccc(Cl)cc5)c5ccc(Cl)cc5)cc34)CC2)cc1 [Compound 72]
< 5.00

GET /values?readout=pEC50&item= O=C(O)c1cc(S(=O)(=O)N2CCC(c3c4cc(C(c5ccc(Cl)cc5)c5ccc(Cl)cc5)ccc4nn3C3CC3)CC2)ccc1Cl [Compound 168]
5.15

GET /values?readout=pEC50&item= NC(=O)CC(=O)N1CCC(c2nn(C3CC3)c3ccc(C(c4ccc(Cl)cc4)c4ccc(Cl)cc4)cc23)CC1 [Compound 90]
5.51

GET /values?readout=pEC50&item= O=C(O)c1cccc(CN2CCC(c3n[nH]c4ccc(C(c5ccc(Cl)cc5)c5ccc(Cl)cc5)cc34)C2)c1 (centres unmarked) [Compound 272]
< 5.00

GET /values?readout=pEC50&item= CC(O)Cn1nc(C2CCN(S(=O)(=O)C(F)(F)F)CC2)c2cc(C(c3ccc(Cl)cc3)c3ccc(Cl)cc3)ccc21 (centres unmarked) [Compound 202]
< 5.00

More entries:
GET /values?readout=pEC50&item= O=C(CO)N1CCC(c2c3cc(C(c4ccc(Cl)cc4)c4ccc(Cl)cc4)ccc3nn2C2CC2)CC1 [Compound 110]
< 5.00

GET /values?readout=pEC50&item= O=C(O)c1cccc(S(=O)(=O)N2CCC(Nc3n[nH]c4ccc(C(c5ccc(Cl)cc5)c5ccc(Cl)cc5)cc34)CC2)c1 [Compound 128]
< 5.00
